# ASSAY NOTES: Pharmacokinetic study of DH in rats after oral and intravenous administration (non-compartmental analysis)
# Assay type: in vivo, male Sprague–Dawley (SD) rats
# ASSAY CONDITIONS: male, Sprague-Dawley, rat, plasma, po, P.O. 19.2 mg/kg, n = 6, mean ± SD
QUANTITY NAME: Cmax

Read the entry COc1cc2c(cc1OC)C(c1ccc(N(C)C)cc1)NCC2 (stereo not shown) and write its reported Cmax. 121 ng/mL
